Please provide measured MIC for the entries that follow.
test system: Staphylococcus aureus; assay: Antibacterial activity against fluoroquinolone-resistant Staphylococcus aureus harboring DNA gyrase M121K mutant; format: functional
Just the number please, in µg/mL, no unit attached.

Qu. Quickly give me recorded MIC for COc1ccc2nccc([C@@H](O)CC[C@@H]3CCN(C4CC(c5cc(Cl)ccc5F)C4)C[C@@H]3C(=O)O)c2c1 (stereo not given in full)
Ans. 64

Qu. Determine its reported MIC: COc1ccc2nccc([C@@H](O)CC[C@@H]3CCN(C4CC(c5cc(F)cc(F)c5)C4)C[C@@H]3C(=O)O)c2c1 (stereo not given in full)
Ans. 8

Qu. Determine from records and report MIC for COc1ccc2nccc([C@@H](O)CC[C@@H]3CCN(C4CC(c5c(F)cccc5Cl)C4)C[C@@H]3C(=O)O)c2c1 (stereo not given in full)
Ans. 32

Qu. Report measured MIC; entry is COc1ccc2nccc([C@@H](O)CC[C@@H]3CCN(C4CC(c5ccc(F)cc5F)C4)C[C@@H]3C(=O)O)c2c1 (stereo not given in full)
Ans. 64

Qu. Provide only the value of recorded MIC for COc1ccc2nccc([C@@H](O)CC[C@@H]3CCN(C4CC(c5cc(F)cc(F)c5OC)C4)C[C@@H]3C(=O)O)c2c1 (stereo not given in full)
Ans. 64

Qu. Supply recorded MIC for COc1ccc2nccc([C@@H](O)CC[C@@H]3CCN(C4CC(c5c(F)ccc(F)c5F)C4)C[C@@H]3C(=O)O)c2c1 (stereo not given in full) here.
Ans. 16

====

test system: Staphylococcus aureus; assay: Antibacterial activity against fluoroquinolone-resistant Staphylococcus aureus harboring DNA gyrase M121K mutant; format: functional
measurement.label: MIC

Qu. Please indicate MIC recorded for COc1ccc2nccc([C@@H](O)CC[C@@H]3CCN(C4CC(c5ccccc5)C4)C[C@@H]3C(=O)O)c2c1 (stereo partly drawn)
Ans. ≥ 64 µg/mL

Qu. Give the measured MIC for COc1ccc2nccc([C@@H](O)CC[C@@H]3CCN(C4CC(c5c(F)ccc(F)c5OC)C4)C[C@@H]3C(=O)O)c2c1 (stereo partly drawn)
Ans. > 64 µg/mL

Qu. Tell me its MIC given COc1ccc2nccc([C@@H](O)CC[C@@H]3CCN(C4CC(c5cc(F)c(Cl)cc5F)C4)C[C@@H]3C(=O)O)c2c1 (stereo partly drawn) as the entry.
Ans. > 64 µg/mL

Qu. Answer with the recorded MIC of COc1ccc2nccc([C@@H](O)CC[C@@H]3CCN(C4CC(c5cc(C)ccc5F)C4)C[C@@H]3C(=O)O)c2c1 (stereo partly drawn) only.
Ans. > 64 µg/mL

Qu. For the compound COc1ccc2nccc([C@@H](O)CC[C@@H]3CCN(C4CC(c5cc(F)cc(F)c5F)C4)C[C@@H]3C(=O)O)c2c1 (stereo partly drawn) , report MIC.
Ans. 8 µg/mL

Qu. Report measured MIC; entry is COc1ccc2nccc([C@@H](O)CC[C@@H]3CCN(C4CC(c5cccc(F)c5F)C4)C[C@@H]3C(=O)O)c2c1 (stereo partly drawn)
Ans. 32 µg/mL

Qu. Please report the measured MIC for COc1ccc2nccc([C@@H](O)CC[C@@H]3CCN(C4CC(c5c(F)cccc5F)C4)C[C@@H]3C(=O)O)c2c1 (stereo partly drawn)
Ans. 23 µg/mL

Qu. Note down MIC recorded for `COc1ccc2nccc([C@@H](O)CC[C@@H]3CCN(C/C=C/c4ccccc4)C[C@@H]3C(=O)O)c2c1`
Ans. > 64 µg/mL
